test system: Leishmania major; experiment: Anti-leishmanial activity against Leishmania major MHOM/JL/80/ Friedlin promastigotes incubated for 72 hrs at 28 degC; type: functional, organism-based
For each entry below, report its pEC50 value.
# pEC50 = -log10(concentration in molar units)

[ask] Quick check: pEC50 on Leishmania major, item c1c[n+]2ccc1NCCCCCNc1cc[n+](cc1)CCCCC2 ?
[reply] 7.15

[ask] c1cc2cc(c1)CNc1cc[n+](cc1)CCCCC[n+]1ccc(cc1)NC2 , same question.
[reply] 4.77

[ask] c1c[n+]2ccc1NCCCCCNc1cc[n+](cc1)CCOCC2 , same question.
[reply] 6.59

[ask] CCCCCCCCCCCCCCCCOP(=O)([O-])OCC[N+](C)(C)C , same question.
[reply] 4.78

[ask] c1cc2cc(c1)C[n+]1ccc(cc1)NCCOCCNc1cc[n+](cc1)C2 , same question.
[reply] 5.54

[ask] C[C@@H]1[C@H](O)[C@@H](C)/C=C/C=C/C=C/C=C/C=C/C=C/C=C/[C@H](O[C@@H]2O[C@H](C)[C@@H](O)[C@H](N)[C@@H]2O)C[C@@H]2O[C@](O)(C[C@@H](O)C[C@@H](O)[C@H](O)CC[C@@H](O)C[C@@H](O)CC(=O)O[C@H]1C)C[C@H](O)[C@H]2C(=O)O , same question.
[reply] 6.49

[ask] c1c[n+]2ccc1NCCOCCNc1cc[n+](cc1)CCOCC2 , same question.
[reply] 6.72

[ask] c1c[n+]2ccc1NCCOCCNc1cc[n+](cc1)CCCCC2 , same question.
[reply] 6.59
